Origin of measurements: the supplement of paper PMC6992640

# Test system: HCI11 (cells of an ER-positive luminal breast cancer xenograft);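 note: PDX cells carrying CMV promoter-driven luciferase, viability read as total photon flux per second by IVIS imaging following D-luciferin, vehicle control 0.1% DMSO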
# PROTOCOL_SUMMARY: cell viability (% of vehicle); higher = less cytotoxic
# CONDITION_INFO: 10 µM; 72 h
Where a name gives a salt, the structure may show the parent alone.
Labelling field: enter TRUE if recorded cell viability is less than 90. Enter FALSE if it equals or exceeds that cut-off.

input: In the record for C[N+]1(C)[C@@H]2C[C@@H](OC(=O)C(CO)c3ccccc3)C[C@H]1[C@@H]1O[C@@H]12.[Br-] (some centres undefined) , is cell viability less than 90?
output: FALSE

input: For this compound, is cell viability lower than 90? C=CCN1CCC23c4c5ccc(O)c4OC2C(=O)CCC3(O)C1C5.Cl (centres undefined) [Naloxone HCl]
output: FALSE

input: Determine if C[C@@H]1CC[C@H]2[C@@H](C)C(=O)O[C@@H]3OC4(C)CC[C@@H]1[C@]32OO4 shows cell viability strictly lower than 90.
output: FALSE

input: cell viability under 90? Item: COc1ccc(C(=O)N2CCCC2=O)cc1
output: FALSE

input: Please check: cell viability for CC(C)NCC(O)c1ccccc1Cl.Cl (centres undefined) [Clorprenaline HCL] , strictly under 90 or not?
output: FALSE

input: cell viability under 90? Item: O=c1[nH]c2ccccc2n1C1CCN(CCCC(c2ccc(F)cc2)c2ccc(F)cc2)CC1 [Pimozide]
output: TRUE

input: Hello, I'm reviewing records and need to know if cell viability of O=C(O)c1nn(Cc2ccc(Cl)cc2Cl)c2ccccc12 is below 90. Could you check?
output: TRUE

input: Does Cc1cc(O)ccc1Cl have cell viability strictly under 90?
output: TRUE

input: Hi there! Is cell viability for CC(C)N(CCNC(=O)CN1CCCC1=O)C(C)C below 90, do you know?
output: FALSE

input: In the record for Cc1c(N)nc(C(CC(N)=O)NCC(N)C(N)=O)nc1C(=O)NC(C(=O)NC(C)C(O)C(C)C(=O)NC(C(=O)NCCc1nc(-c2nc(C(=O)NCCC[S+](C)C)cs2)cs1)C(C)O)C(O[C@@H]1O[C@@H](CO)[C@@H](O)[C@H](O)[C@@H]1O[C@H]1O[C@H](CO)[C@@H](O)[C@H](OC(N)=O)[C@@H]1O)c1cnc[nH]1 (some centres undefined) [Bleomycin Sulfate] , is cell viability less than 90?
output: FALSE

input: API: query returns whether the compound falls strictly under 90 in cell viability. Query: Cl.NCC(O)c1ccc(O)cc1 (racemic) [(+,-)-Octopamine HCl]
output: FALSE

input: State whether 90 exceeds cell viability recorded for O=c1[nH]c2ccccc2n1CCCN1CCC(n2c(=O)[nH]c3cc(Cl)ccc32)CC1 .
output: TRUE

input: Field: below-cutoff. Rule: recorded cell viability strictly less than 90. Subject: CC(NC(C)(C)C)C(=O)c1cccc(Cl)c1.Cl (centres undefined) [Bupropion hydrochloride]
output: TRUE

input: # check: cell viability < 90 for O=P1(NCCCl)OCCCN1CCCl (centres undefined) [Ifosfamide]
output: TRUE
